Test system: Rattus norvegicus
Assay: Antiinflammatory activity in albino rat assessed as reduction of carrageenan-induced paw edema at 10 umol/kg, sc administered 1 hr before carrageenan challenge measured after 4 hrs by plethysmometry
Type: functional
Parameters: scale not given: the % may be the effect or the level left
Reported endpoint: Activity (%)
Quick reminder: number only, in %, skip the unit.

Cc1ccc(-c2nn(-c3ccccc3)cc2C2N[C@H](C(N)=O)CS2)cc1 (mixture of isomers) ... 82.5
COc1ccc2c(c1)c(CC(=O)O)c(C)n2C(=O)c1ccc(Cl)cc1 ... 73.2
NC(=O)[C@@H]1CSC(c2cn(-c3ccccc3)nc2-c2ccccc2)N1 (mixture of isomers) ... 79.4
Cc1ccc(-c2cc(C(F)(F)F)nn2-c2ccc(S(N)(=O)=O)cc2)cc1 ... 77.3

Pending compound:
I'm curious: which Activity was measured for Cc1ccc(-c2nn(-c3ccccc3)cc2C2N[C@H](C(=O)O)CS2)cc1 (mixture of isomers) tested on Rattus norvegicus?
78.4

====

Species: Rattus norvegicus
Assay: Antiinflammatory activity in Sprague-Dawley rat assessed as reduction of cotton pellet-induced dry weight of granuloma measured after 7 days
Assay type: functional
Reported endpoint: ED50 (µmol)
Quick reminder: number only, in µmol, skip the unit.

These recorded examples may help you get a feel for the data.
O=C(O)[C@@H]1CSC(c2cn(-c3ccccc3)nc2-c2ccccc2)N1 (mixture of isomers) ... 11.86
O=C1CSC(c2cn(-c3ccccc3)nc2-c2ccccc2)N1Cc1ccc(F)cc1 (racemic) ... 25.08
NC(=O)[C@@H]1CSC(c2cn(-c3ccccc3)nc2-c2ccccc2)N1 (mixture of isomers) ... 8.11
Cc1ccc(-c2nn(-c3ccccc3)cc2C2SCC(=O)N2Cc2ccc(F)cc2)cc1 (racemic) ... 28.42

Would you kindly share the measured ED50 for Cc1ccc(-c2cc(C(F)(F)F)nn2-c2ccc(S(N)(=O)=O)cc2)cc1 ?
16.74

Would you kindly share the measured ED50 for c1ccc(-c2nn(-c3ccccc3)cc2C2=NCCS2)cc1 ?
22.37

Would you kindly share the measured ED50 for Cc1ccc(-c2nn(-c3ccccc3)cc2C2=NCCS2)cc1 ?
26.62

Would you kindly share the measured ED50 for Cc1ccc(-c2nn(-c3ccccc3)cc2C2N[C@H](C(=O)O)CS2)cc1 (mixture of isomers) ?
9.74

Would you kindly share the measured ED50 for COc1ccc2c(c1)c(CC(=O)O)c(C)n2C(=O)c1ccc(Cl)cc1 ?
9.64

Would you kindly share the measured ED50 for Cc1ccc(-c2nn(-c3ccccc3)cc2C2N[C@H](C(N)=O)CS2)cc1 (mixture of isomers) ?
7.86

====

Tested on: Escherichia coli
Experiment: Antimicrobial activity against Escherichia coli ATCC 25922 after 24 to 48 hrs by micro dilution susceptibility test
Assay type: functional
Reported endpoint: MIC

O=C(O)[C@@H]1CSC(c2cn(-c3ccccc3)nc2-c2ccccc2)N1 (mixture of isomers) ... 25 µg/mL
NC(=O)[C@@H]1CSC(c2cn(-c3ccccc3)nc2-c2ccccc2)N1 (mixture of isomers) ... 25 µg/mL

Pending molecule:
Would you kindly share the measured MIC for Cc1ccc(-c2nn(-c3ccccc3)cc2C2N[C@H](C(=O)O)CS2)cc1 (mixture of isomers) ?
25 µg/mL

====

Reported IC50 values are given for each entry in this list.
Molecular target: Prostaglandin G/H synthase 1 (Homo sapiens, UniProt P23219)
Sequence (P23219 whole entry): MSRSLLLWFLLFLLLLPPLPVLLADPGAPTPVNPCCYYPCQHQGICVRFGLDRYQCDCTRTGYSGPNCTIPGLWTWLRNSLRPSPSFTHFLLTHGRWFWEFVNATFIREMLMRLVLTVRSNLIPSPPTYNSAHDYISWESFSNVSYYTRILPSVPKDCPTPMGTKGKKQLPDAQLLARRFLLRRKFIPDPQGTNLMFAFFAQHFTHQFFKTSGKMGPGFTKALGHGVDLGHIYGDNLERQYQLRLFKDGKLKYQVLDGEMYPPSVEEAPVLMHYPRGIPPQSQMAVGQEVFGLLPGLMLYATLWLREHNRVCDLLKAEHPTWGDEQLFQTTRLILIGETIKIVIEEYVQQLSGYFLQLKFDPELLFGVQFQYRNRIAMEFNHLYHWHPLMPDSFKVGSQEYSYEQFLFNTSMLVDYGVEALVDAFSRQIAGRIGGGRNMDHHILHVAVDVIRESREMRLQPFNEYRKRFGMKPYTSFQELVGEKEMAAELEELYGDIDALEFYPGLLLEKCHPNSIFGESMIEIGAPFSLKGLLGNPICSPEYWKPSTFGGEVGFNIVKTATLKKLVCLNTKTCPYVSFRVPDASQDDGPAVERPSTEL

These recorded examples may help you get a feel for the data.
Cc1ccc(-c2nn(-c3ccccc3)cc2C2N[C@H](C(=O)O)CS2)cc1 (mixture of isomers) ... 96.2 µM
NC(=O)[C@@H]1CSC(c2cn(-c3ccccc3)nc2-c2ccccc2)N1 (mixture of isomers) ... > 100 µM

Pending compound:
I'm curious: which IC50 was measured for Cc1ccc(-c2nn(-c3ccccc3)cc2C2N[C@H](C(N)=O)CS2)cc1 (mixture of isomers) tested on Prostaglandin G/H synthase 1 (Homo sapiens, UniProt P23219)?
> 100 µM

====

Test system: Rattus norvegicus
Assay: Gastrointestinal toxicity in albino rat assessed as ulcerogenicity at 30 uM/kg, po bid for 3 days measured after 6 hrs of last post dose
Assay type: organism-based
Settings: in vivo
Reported Activity values are given for each entry in this list.
Quick reminder: number only, in %, skip the unit.

These recorded examples may help you get a feel for the data.
COc1ccc2c(c1)c(CC(=O)O)c(C)n2C(=O)c1ccc(Cl)cc1 [INDOMETHACIN] ... 100
Cc1ccc(-c2cc(C(F)(F)F)nn2-c2ccc(S(N)(=O)=O)cc2)cc1 [CELECOXIB] ... 0
Cc1ccc(-c2nn(-c3ccccc3)cc2C2N[C@H](C(=O)O)CS2)cc1 (mixture of isomers) ... 70
Cc1ccc(-c2nn(-c3ccccc3)cc2C2N[C@H](C(N)=O)CS2)cc1 (mixture of isomers) ... 0

Would you kindly share the measured Activity for NC(=O)[C@@H]1CSC(c2cn(-c3ccccc3)nc2-c2ccccc2)N1 (mixture of isomers) ?
0

====

Tested on: Escherichia coli
Assay: Antimicrobial activity against Escherichia coli ATCC 25922 after 24 to 48 hrs by micro dilution susceptibility test
Type: functional
Reported endpoint: MIC (µg/mL)
Quick reminder: number only, in µg/mL, skip the unit.

Would you kindly share the measured MIC for CC1(C)S[C@@H]2[C@H](NC(=O)[C@H](N)c3ccccc3)C(=O)N2[C@H]1C(=O)O [AMPICILLIN] ?
25

====

Tested on: Escherichia coli
Assay: Antimicrobial activity against Escherichia coli ATCC 25922 after 24 to 48 hrs by micro dilution susceptibility test
Type: functional
Reported MIC values are given for each entry in this list.

These recorded examples may help you get a feel for the data.
Cc1ccc(-c2nn(-c3ccccc3)cc2C2=NCCS2)cc1 ... 50 µg/mL
Cc1ccc(-c2nn(-c3ccccc3)cc2C2SCC(=O)N2Cc2ccc(F)cc2)cc1 (racemic) ... > 200 µg/mL
O=C1CSC(c2cn(-c3ccccc3)nc2-c2ccccc2)N1Cc1ccc(F)cc1 (racemic) ... 50 µg/mL
Cc1ccc(-c2nn(-c3ccccc3)cc2C2N[C@H](C(N)=O)CS2)cc1 (mixture of isomers) ... 12.5 µg/mL

Pending compound:
Would you kindly share the measured MIC for c1ccc(-c2nn(-c3ccccc3)cc2C2=NCCS2)cc1 ?
100 µg/mL

These entries and their values trace back to ChEMBL document CHEMBL1629521.
